Listed here are compounds together with their documented growth.
Tested on: A549/ATCC NSCLC
PROCEDURE_DETAILS: NCI-60 one-dose screen, 48 h (100 = growth as untreated, 0 = no growth, -100 = all killed)
DETAILS: 10 µM unless noted
This is part of a sample that, as a whole, favours compounds with a hit. Of some 83,000 tested, about 20% had one in any assay.
QUANTITY_NAME: growth (%)

1. O=C1CCCN1c1cccc2cccnc12 = 99
2. COc1cc(-c2nc3occn3c2-c2ccnc(NCCNS(=O)(=O)c3ccc(Cl)cc3)n2)ccc1F = 82
3. CC(=O)c1c(C)[nH]c(-c2nc3ccc(N4CCN(C)CC4)cc3[nH]2)c1-c1ccccc1 = 38.1
4. CC1NC(=S)NC(=O)/C1=C/c1cc(=O)oc2c1ccc1ccccc12 (centres undefined) = 81.3
5. COc1ccc(-c2nc(SCC(C)C)nc(N/N=C(/C)c3ccc(OC)c(OC)c3)c2C#N)cc1 = 99.8
6. COc1cc(CNC(=O)CCCCC[P+](c2ccccc2)(c2ccccc2)c2ccccc2)c(OC)c2c1OCO2 = 87.8
7. CCN(CC)CCOC(COc1cc(C)cc(C)c1)COc1cc(C)cc(C)c1 = 47.8
8. COc1ccc(/C=N/C2=C(C#N)C(c3ccccc3[N+](=O)[O-])c3ccc4ccccc4c3O2)cc1 (centres undefined) = 99.8
9. COc1ccc(NC(=O)c2sc3nc(C)c(C(=O)c4ccc(OC)cc4)cc3c2N)cc1 = 24.6
